Where do the numbers come from? From PubChem BioAssay AID330.

Form field: T/C (one value per entry).
- Test system: P388 leukemia ip, CD2F1 mice, survival T/C
- protocol: NCI In Vivo Anticancer Drug Screen. Data for tumor model P388 Leukemia (intraperitoneal) in CD2F1 (CDF1) mice
- settings: endpoint: median survival time; dose: 12.5 mg/kg/injection; schedule: Q01DX009 (ip); vehicle: saline with Tween-80; higher = longer survival
Inconclusive results and toxic doses are left out.

Examples with answers:
compound | result
O=[N+]([O-])c1ccc(S(=O)(=O)Cc2ccccc2)c2nonc12 | 100 % of control
CNc1ccc(N=Nc2ccc3ncccc3c2)cc1 | 90 % of control
COC(=O)[CH](C[N+](=O)[O-])[Hg][Cl] (stereo not drawn) | 95 % of control
Nc1c(C(=O)O)[nH]c(=O)[nH]c1=O | 119 % of control
C/C(=N\NC(=S)N1CCCCC1)c1ccccn1 | 100 % of control
CC(C)CC([NH-])C(=O)O.[C-]#[O+].[C-]#[O+].[Rh] (stereo not drawn) | 115 % of control
CC(O)C(NC(=O)c1cnc(OCc2ccccc2)nc1N)C(=O)O (stereo not drawn) | 100 % of control
CCNC(=O)Nc1nc2ccccc2[nH]1 | 103 % of control

Q: Need T/C, item `NP(=O)(Oc1ccccc1)Oc1ccccc1`
Ans: 100 % of control

Q: CCSC1(SCC)C(=O)OC2=C(CCCCC2)C1N(C)c1ccccc1 (stereo not drawn) ?
Ans: 93 % of control

---

- Tested on: P388 leukemia ip, CD2F1 mice, survival T/C
- protocol: NCI In Vivo Anticancer Drug Screen. Data for tumor model P388 Leukemia (intraperitoneal) in CD2F1 (CDF1) mice
- settings: endpoint: median survival time; dose: 12.5 mg/kg/injection; schedule: Q01DX009 (ip); vehicle: saline; higher = longer survival
- Method: The antitumor activity of compounds was measured in mice bearing transplantable tumors. Survival or tumor size were measured and the results are expressed as the measurement made in the treated group (T) divided by the measurement made in the vehicle treated control group (C). The tumor model used in this assay is P388 Leukemia (intraperitoneal) in CD2F1 (CDF1) mice
Inconclusive results and toxic doses are left out.
readout label: T/C

Examples with answers:
molecule | readout label | result
CS(=O)(=O)Oc1cccn(S(C)(=O)=O)c1=O | T/C | 97 % of control
COc1cc2c(cc1OC)CC[N+](CCC[N+](C)(C)C)=C2 | T/C | 104 % of control
CC(C)=CCC(C)/C(=N\[N+](C)(C)C)c1ccccc1 (stereo unspecified) | T/C | 99 % of control

Q: Need T/C, item `CCCC[N+]1(CC)CCCCC1`
Ans: 106 % of control

Q: `CCC(=N\NC(=S)NCCN(CC)CC)/C(C)=N/NC(=S)NCCN(CC)CC` ?
Ans: 101 % of control

Q: `CCN(CC)CCCOC(=O)c1ccc(N)cc1` ?
Ans: 100 % of control

Q: `O=C(Oc1ccccc1)c1cc2ccccc2cc1O` ?
Ans: 103 % of control

Q: `CCOC(=O)CC1=NN=C(N)SC1` ?
Ans: 100 % of control

Q: `COC(=O)c1[nH]c(=O)c2cccnc2c1O` ?
Ans: 100 % of control

Q: CN(C)c1ncnc2c1ncn2C1OC(CO)C(N)C1O (stereo unspecified) ?
Ans: 118 % of control

Q: C(Oc1nc(OCC2CO2)nc(OCC2CO2)n1)C1CO1 (stereo unspecified) ?
Ans: 108 % of control

---

- System: P388 leukemia ip, CD2F1 mice, survival T/C
- protocol: NCI In Vivo Anticancer Drug Screen. Data for tumor model P388 Leukemia (intraperitoneal) in CD2F1 (CDF1) mice
- settings: endpoint: median survival time; dose: 50.0 mg/kg/injection; schedule: Q01DX005 (ip); vehicle: saline; higher = longer survival
Inconclusive results and toxic doses are left out. Numbered stars: 1 amine (or outer) side, 2 acyl side, 3 side chain; on linkers, the order of the positions; unused ones are H or OH. Square brackets hold non-standard residues; d marks the D form. Peptide text beside a SMILES is read from it. ξ: configuration not given here. γGlu = O=C(O)[CH](CCC(=O)[*:2])N[*:1]; Ac5c = NC1(C(=O)O)CCCC1; ξP = O=C(O)C1CCCN1
Form field: T/C (one value per entry).

Examples with answers:
compound | T/C
CN(C)CCNCCN | 96 % of control
NC(CCC(=O)NC(CCC(=O)O)C(=O)NC(CCC(=O)O)C(=O)O)C(=O)O (stereo not drawn) (γGlu-Glu-Glu-OH; configuration not given here) | 98 % of control
CC(NCCCCNC(C)C(=O)O)C(=O)O (stereo not drawn) | 94 % of control
NC1(C(=O)N2CCCC2C(=O)O)CCCC1 (stereo not drawn) (H-[Ac5c]-[ξP]-OH) | 96 % of control
Cc1nnc(N)c(C#N)c1C | 95 % of control
COC(OC)(OC)OC | 104 % of control
NC1CCOC1=O (stereo not drawn) | 100 % of control
COc1cc2c(cc1OC)C1CC3(CCN1CC2)CC(=O)NC3=O (stereo not drawn) | 97 % of control
COc1c(C)n(C)n(-c2ccccc2)c1=O | 102 % of control
CCN(CC)CCOCC1CC2C(C=C1C)C2(C)C (stereo not drawn) | 107 % of control

Q: Need T/C, item COC1C=C(C)C(=O)O1 (stereo not drawn)
Ans: 106 % of control

Q: `CCN(CC)CCCCCCNc1cc(OC)c(Cl)c2cccnc12` ?
Ans: 115 % of control

Q: Cc1cn(CCCSCC2OC3OC4C(CO)OC(OC5C(CO)OC(OC6C(CO)OC(OC7C(CO)OC(OC8C(CO)OC(OC9C(CO)OC(OC2C(O)C3O)C(O)C9O)C(O)C8O)C(O)C7O)C(O)C6O)C(O)C5O)C(O)C4O)c(=O)[nH]c1=O (stereo not drawn) ?
Ans: 103 % of control

---

- Test system: P388 leukemia ip, CD2F1 mice, survival T/C
- protocol: NCI In Vivo Anticancer Drug Screen. Data for tumor model P388 Leukemia (intraperitoneal) in CD2F1 (CDF1) mice
- settings: endpoint: median survival time; dose: 15.0 mg/kg/injection; schedule: Q01DX005 (ip); vehicle: saline with Tween-80; higher = longer survival
Toxic doses and inconclusive results are not listed.
readout label: T/C

molecule | target desc | T/C
COc1cc(C2CC(C)(OC)Oc3cc4c(cc32)OCO4)cc(OC)c1O (centres undefined) | P388 leukemia ip, CD2F1 mice, survival T/C | 90 % of control
CC(=O)OCC1OC(OC2C=C(O[Si](C)(C)C)C[C@H]3C(=O)C=CC(=O)[C@@H]23)C(OC(C)=O)C(OC(C)=O)C1OC(C)=O (some centres undefined) | P388 leukemia ip, CD2F1 mice, survival T/C | 98 % of control
CCc1ccc(O)c(CN2CCN(Cc3cc(CC)ccc3O)CC2)c1 | P388 leukemia ip, CD2F1 mice, survival T/C | 89 % of control

Q: Need T/C, item `C[Si](C)(C)CSC#N`
Ans: 101 % of control

---

Form field: T/C (one value per entry).
- Tested on: P388 leukemia ip, CD2F1 mice, survival T/C
- protocol: NCI In Vivo Anticancer Drug Screen. Data for tumor model P388 Leukemia (intraperitoneal) in CD2F1 (CDF1) mice
- settings: endpoint: median survival time; dose: 200.0 mg/kg/injection; schedule: Q04DX003 (ip); vehicle: saline with Tween-80; higher = longer survival
Inconclusive results and toxic doses are left out.

Examples with answers:
compound | T/C
c1ccc([P+]23OCCN2CCO3)cc1 | 98 % of control
Nc1ccccc1SC1CC(=O)N(c2ccccc2Cl)C1=O (centres undefined) | 90 % of control
CS(=O)(=O)NCCNS(C)(=O)=O | 103 % of control
CCCC(=O)OCC1OC(n2cnc3c(=S)nc(N)[nH]c32)C(OC(=O)CCC)C1OC(=O)CCC (centres undefined) | 118 % of control
O=C1OC(=O)C2C1C1(c3ccccc3)OC2(c2ccccc2)c2ccccc21 (centres undefined) | 109 % of control
CCCCC(CC)COC(C)=O (centres undefined) | 109 % of control

Q: Need T/C, item `Nc1nc(Br)c2[nH]cnc2n1`
Ans: 113 % of control

Q: `COc1cc[c]([Pb]([O]C(C)=O)([O]C(C)=O)[O]C(C)=O)cc1` ?
Ans: 103 % of control

Q: `O=c1[nH]c2ccccc2c2ccccc12` ?
Ans: 90 % of control

---

Form field: T/C (one value per entry).
- System: P388 leukemia ip, CD2F1 mice, survival T/C
- protocol: NCI In Vivo Anticancer Drug Screen. Data for tumor model P388 Leukemia (intraperitoneal) in CD2F1 (CDF1) mice
- settings: endpoint: median survival time; dose: 100.0 mg/kg/injection; schedule: Q01DX009 (ip); vehicle: saline with Tween-80; higher = longer survival
Toxic doses and inconclusive results are not listed.

Examples with answers:
molecule | result
Oc1ccc(N=Cc2ccc(OCc3ccccc3)cc2)cc1 | 93 % of control
OC1c2cc(Cl)cc(Cl)c2OC2(N3CCCC3)CCCCC12 (centres undefined) | 96 % of control
O=[N+]([O-])c1ccccc1CSc1ncnc2nc[nH]c12 | 90 % of control

Consider the record given below.
Q: Need T/C, item CCCCN(CCCC)CC(O)c1cc2ccc(C(F)(F)F)cc2c2cc(C(F)(F)F)ccc12 (centres undefined)
Ans: 100 % of control
